- Protocol summary: Mean residence time in rat at 1 mg/kg, po administered via cassette dosing by LC/MS/MS analysis
- Assay type: ADME, organism-based
- Conditions: in vivo
Parameter measured: MRT (h)

Tell me the measured MRT of N=c1c(C(N)=O)cc(Cl)cn1Cc1cc(Cl)cc(C(N)=O)c1 , please.
2.47

A = C[C@H](c1cccc(C#N)c1)n1cc(Cl)cc(C(N)=O)c1=N [(R)-9s]
B = CS(=O)(=O)c1ccc(Cl)cc1Cn1cc(Cl)cc(C(N)=O)c1=N
Please indicate which entry, A or B , has the lower recorded MRT value. Identify your pick by its label.
A

----------
- Organism: Homo sapiens
- Protocol summary: Selectivity ratio of Ki for human alpha1B adrenergic receptor to Ki for human alpha1D adrenergic receptor
Parameter measured: Ratio Ki

I = CS(=O)(=O)c1ccc(Cl)cc1Cn1cc(Cl)cc(C(N)=O)c1=N
II = CCOc1ccccc1OCCN[C@H](C)Cc1ccc(OC)c(S(N)(=O)=O)c1
Sort I and II by Ratio Ki descending and give the first. Identify your pick by its label.
I

----------
- Experimental system: hERG (KCNH2) (Homo sapiens)
- Sequence (Q12809 whole entry): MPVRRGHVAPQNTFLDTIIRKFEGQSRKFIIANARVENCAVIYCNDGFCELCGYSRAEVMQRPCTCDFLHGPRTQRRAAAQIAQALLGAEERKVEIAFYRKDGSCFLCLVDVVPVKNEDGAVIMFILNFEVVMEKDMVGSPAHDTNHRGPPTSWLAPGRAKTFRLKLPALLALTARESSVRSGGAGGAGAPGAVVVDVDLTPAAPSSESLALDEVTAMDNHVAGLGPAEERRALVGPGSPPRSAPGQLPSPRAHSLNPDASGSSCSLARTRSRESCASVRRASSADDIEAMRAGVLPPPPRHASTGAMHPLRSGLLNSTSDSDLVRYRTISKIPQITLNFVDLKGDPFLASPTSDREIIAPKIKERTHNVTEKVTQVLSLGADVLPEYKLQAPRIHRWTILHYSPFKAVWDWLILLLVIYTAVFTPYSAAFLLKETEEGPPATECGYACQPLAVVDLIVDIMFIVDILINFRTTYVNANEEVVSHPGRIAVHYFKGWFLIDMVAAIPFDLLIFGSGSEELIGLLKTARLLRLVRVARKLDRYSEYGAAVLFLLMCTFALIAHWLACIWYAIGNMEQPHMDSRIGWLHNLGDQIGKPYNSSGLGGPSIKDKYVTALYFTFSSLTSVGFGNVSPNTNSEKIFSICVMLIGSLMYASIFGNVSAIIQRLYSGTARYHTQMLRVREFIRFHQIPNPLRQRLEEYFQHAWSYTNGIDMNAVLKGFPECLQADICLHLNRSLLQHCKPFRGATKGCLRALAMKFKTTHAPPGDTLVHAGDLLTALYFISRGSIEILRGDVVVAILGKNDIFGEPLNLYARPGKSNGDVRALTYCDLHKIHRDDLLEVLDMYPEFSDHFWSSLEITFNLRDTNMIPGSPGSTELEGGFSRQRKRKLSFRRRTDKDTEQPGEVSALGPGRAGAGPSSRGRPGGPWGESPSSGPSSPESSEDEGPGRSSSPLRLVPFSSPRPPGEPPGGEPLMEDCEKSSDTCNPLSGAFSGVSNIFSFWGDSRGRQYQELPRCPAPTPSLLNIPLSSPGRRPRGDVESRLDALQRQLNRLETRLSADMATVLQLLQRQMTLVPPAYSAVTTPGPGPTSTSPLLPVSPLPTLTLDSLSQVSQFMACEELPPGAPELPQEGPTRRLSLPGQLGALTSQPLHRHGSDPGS
- Protocol summary: Inhibition of human ERG channel expressed in CHO cells assessed as peak tail current at 10 uM incubated for 5 mins by patch-clamp assay
- Type: cell-based
- Conditions: CHO cells expressing human ERG channel
Readings of inhibition at 5 min, 10 µM for the listed molecules
Provide only the numeric value, understood in %.

As a guide, the following entries are already answered.
Tell me the measured inhibition at 5 min, 10 µM of CS(=O)(=O)c1cc(Cl)cc(Cn2cc(Cl)cc(C(N)=O)c2=N)c1 , please.
14

One more molecule: C[C@@H](c1cccc(C#N)c1)n1cc(Cl)cc(C(N)=O)c1=N [(S)-9s]
57

Others:
Tell me the measured inhibition at 5 min, 10 µM of CS(=O)(=O)c1ccc(Cn2cc(Cl)cc(C(N)=O)c2=N)cc1Cl , please.
13

One more molecule: CC(c1cccc(C#N)c1)n1cc(Cl)cc(C(N)=O)c1=N (stereo unspecified)
32

One more molecule: N#Cc1cc(Cl)cc(Cn2cc(Cl)cc(C(N)=O)c2=N)c1
71

One more molecule: CS(=O)(=O)c1ccc(Cl)cc1Cn1cc(Cl)cc(C(N)=O)c1=N
16

One more molecule: N=c1c(C(N)=O)cc(Cl)cn1Cc1cc(Cl)cc(C(N)=O)c1
13

One more molecule: N#Cc1ccc(Cn2cc(Cl)cc(C(N)=O)c2=N)cc1Cl
74

One more molecule: CC(c1cccc(S(C)(=O)=O)c1)n1cc(Cl)cc(C(N)=O)c1=N (stereo unspecified)
19

One more molecule: N#Cc1ccc(Cl)cc1Cn1cc(Cl)cc(C(N)=O)c1=N
59

One more molecule: C[C@H](c1cccc(C#N)c1)n1cc(Cl)cc(C(N)=O)c1=N [(R)-9s]
25

----------
- Protocol summary: AUC in rat at 1 mg/kg, po administered via cassette dosing by LC/MS/MS analysis
- Type: ADME, organism-based
- Conditions: in vivo
Parameter measured: AUC (ng·h/mL)

Tell me the measured AUC of CS(=O)(=O)c1ccc(Cl)cc1Cn1cc(Cl)cc(C(N)=O)c1=N , please.
358

A = C[C@H](c1cccc(C#N)c1)n1cc(Cl)cc(C(N)=O)c1=N [(R)-9s]
B = N=c1c(C(N)=O)cc(Cl)cn1Cc1cc(Cl)cc(C(N)=O)c1
Please indicate which entry, A or B , has the lower recorded AUC value. Identify your pick by its label.
B

All figures here come from ChEMBL document CHEMBL3797060.
